The origin of these recorded values is ChEMBL document CHEMBL3045364.

- study target: Estrogen receptor (Homo sapiens) (UniProt P03372)
- Sequence (whole entry): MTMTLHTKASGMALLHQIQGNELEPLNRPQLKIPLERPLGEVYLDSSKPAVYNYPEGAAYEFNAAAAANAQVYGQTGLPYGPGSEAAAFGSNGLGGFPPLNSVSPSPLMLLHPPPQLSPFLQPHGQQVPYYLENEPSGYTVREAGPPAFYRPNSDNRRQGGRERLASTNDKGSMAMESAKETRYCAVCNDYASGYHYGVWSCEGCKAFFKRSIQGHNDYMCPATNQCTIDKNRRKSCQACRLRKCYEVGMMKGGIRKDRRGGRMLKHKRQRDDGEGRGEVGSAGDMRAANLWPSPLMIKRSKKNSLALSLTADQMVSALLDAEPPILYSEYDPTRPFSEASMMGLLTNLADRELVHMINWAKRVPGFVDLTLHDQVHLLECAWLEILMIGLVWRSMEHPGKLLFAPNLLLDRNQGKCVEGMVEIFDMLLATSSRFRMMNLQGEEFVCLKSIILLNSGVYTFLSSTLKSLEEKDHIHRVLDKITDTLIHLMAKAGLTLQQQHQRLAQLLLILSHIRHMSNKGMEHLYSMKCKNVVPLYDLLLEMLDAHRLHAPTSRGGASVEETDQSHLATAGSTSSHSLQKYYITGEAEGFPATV
- assay protocol: Displacement of [3H]E2 from Homo sapiens (human) recombinant ER-alpha by HAP binding assay
The source made the active and inactive calls. No cut-off for these calls is given here.
quantity kind: inhibition

Examples from the recorded data:
Problem: Value lookup for inhibition; key = O=C1CC2(CCCCC2)Oc2cc(O)ccc21
Result: inactive

Problem: Value lookup for inhibition; key = Cc1ccc(/C=C2\COc3ccccc3C2=O)cc1
Result: inactive

Problem: Value lookup for inhibition; key = COc1ccc2c(c1)OC1(CCCCC1)CC2=O
Result: inactive

Problem: Value lookup for inhibition; key = COc1cccc(/C=C2\COc3ccccc3C2=O)c1
Result: inactive

Problem: Value lookup for inhibition; key = COc1ccc2c(c1)OC1(CCC(C(C)(C)C)CC1)CC2=O (configuration not stated)
Result: inactive

Problem: Value lookup for inhibition; key = CN(C)c1ccc(/C=C2\COc3ccccc3C2=O)cc1
Result: inactive

Now consider a different compound.
Problem: Value lookup for inhibition; key = O=C1/C(=C/c2ccccc2)COc2ccccc21
Result: inactive
